Below is a list of entries, each paired with its recorded growth AUC value.
# Test system: Bacteroides caccae
# PROCEDURE_TEXT: growth AUC relative to DMSO control (median of replicates) (fraction); higher = more growth (less inhibition), active = hit call of the paper
# TEST_PARAMETERS: 20 µM; 24 h
MEASURE_NAME: growth AUC

- ClC1=C(Cl)[C@]2(Cl)C3CC=CC3[C@@]1(Cl)C2(Cl)Cl (some centres undefined): 1.03 (inactive)
- ClC1=C(Cl)[C@]2(Cl)[C@@H]3[C@@H]4C[C@@H]([C@H]5O[C@@H]45)[C@@H]3[C@@]1(Cl)C2(Cl)Cl: 0.98 (inactive)
- CO/N=C(/C1=NOCCO1)c1ccccc1Oc1ncnc(Oc2ccccc2Cl)c1F: 0.987 (inactive)
- OC(c1ccc(Cl)cc1)(c1cncnc1)c1ccccc1Cl (centres undefined): 0.89 (inactive)
- Cn1cc(-c2ccccc2)c(=O)c(-c2cccc(C(F)(F)F)c2)c1: 0.923 (inactive)
- COC(=O)NC(=S)Nc1ccccc1NC(=S)NC(=O)OC: 0.99 (inactive)
- ClCC1C(CCl)C2(Cl)C(Cl)=C(Cl)C1(Cl)C2(Cl)Cl (centres undefined): 0.971 (inactive)
- ClC1=C(Cl)C(Cl)(C2(Cl)C(Cl)=C(Cl)C(Cl)=C2Cl)C(Cl)=C1Cl: 0.926 (inactive)
- CC(C)C(C(=O)OC(C#N)c1cccc(Oc2ccccc2)c1)c1ccc(OC(F)F)cc1 (centres undefined): 0.981 (inactive)
- CC(C)(C)[C@@H](O)[C@H](Oc1ccc(Cl)cc1)n1cncn1: 0.904 (inactive)
- O=C(NC(=O)c1c(F)cccc1F)Nc1cc(Cl)c(OC(F)(F)C(F)C(F)(F)F)cc1Cl (centres undefined): 0.981 (inactive)
- CNC(=O)Oc1ccc(N(C)C)c(C)c1: 0.855 (inactive)
- ClC1=C(Cl)C2(Cl)C(CBr)CC1(Cl)C2(Cl)Cl (centres undefined): 1.04 (inactive)
- CNC(=O)Oc1cc(C)c(N(C)C)c(C)c1: 1.03 (inactive)
- CCCN(CCC)c1c([N+](=O)[O-])cc(S(C)(=O)=O)cc1[N+](=O)[O-]: 0.942 (inactive)
- COC(=O)Nc1nc2ccccc2[nH]1: 1.01 (inactive)
- COCc1cnc(C2=NC(C)(C(C)C)C(=O)N2)c(C(=O)O)c1 (centres undefined): 0.971 (inactive)
- CCOCN(C(=O)CCl)c1c(C)cccc1CC: 1.01 (inactive)
- COCC(=O)N(c1c(C)cccc1C)[C@H](C)C(=O)OC: 1 (inactive)
